TGI for assorted molecules
System: SF-295 CNS
Assay Remarks: NCI tumour cell line growth inhibition, 48 h
Express it in µM; write the number only.

Solved entries (count: 3):
[[record]]
molecule = "CCN(CC)c1c(C(=O)/C=C/c2ccc(Cl)cc2)c(-c2ccccc2)nn(C)c1=O"
unit_string = "µM"
observed = 3.38

[[record]]
molecule = "CCOC(=O)Nc1ccc2c(c1)/C(=N\\NC(N)=S)c1ccccc1-2"
unit_string = "µM"
observed = 7.59

[[record]]
molecule = "CC1=C(c2ccccc2)C(c2ccccc2)=C(c2ccccc2)C2(c3ccccc3)C(=O)C(C)CN12 (configuration not stated)"
unit_string = "µM"
observed = 37.7


// query For the molecule `CC(=O)c1ccc2c(c1)c1c(C)c3c[n+](C)ccc3c(C)c1n2C` , report TGI.
// result 10.3

// query Give the reported TGI for this molecule. `CN(CCNC(=O)c1nn(-c2ccccc2)c2c1Cc1ccccc1-2)CCNC(=O)c1nn(-c2ccccc2)c2c1Cc1ccccc1-2`
// result 3.34

----------
Test system: UACC-62 melanoma
Assay Remarks: NCI tumour cell line growth inhibition, 48 h; in the data active = GI50 below about 0.43 µM; inactive = the rest
Form entry, call: pick from y = active, n = inactive

[[record]]
molecule = "CCN1C(=O)N(CC)C2C1NN=c1s/c(=C\\c3cccc(F)c3)c(=O)n12 (stereo unspecified)"
label_class = "y"

[[record]]
molecule = "N=C1C(c2nc3ccccc3s2)=C(O)CN1c1ccc(F)c(Cl)c1"
label_class = "n"

[[record]]
molecule = "C[C@@]1(C(=O)O)CCC[C@]2(C)C1CC[C@@]13CC(=O)[C@@](CO)(CC[C@]12O)C3 (stereo partly specified)"
label_class = "n"

[[record]]
molecule = "C=C(CN1C(=O)CN(C)C1=O)c1ccc(C(=O)Nc2ccccc2N)cc1"
label_class = "n"

[[record]]
molecule = "O=C(Oc1cccc(F)c1OC(=O)c1cccc(O)c1)c1cccc(O)c1"
label_class = "n"


// query Record request — test call for `N#Cc1ccc(OCc2nc(N)nc(N)c2-c2ccc(Cl)c(Cl)c2)cc1`
// result n

// query Could you please tell me the result logged for OC(Cc1ccncc1)C(Cl)(Cl)Cl (stereo unspecified) in this assay?
// result n

// query Each molecule tested received a call. Report the one for `O=C1C(Cl)=C(Nc2cccc(Cl)c2)C(=O)N1Cc1ccc(Cl)cc1` .
// result n

// query Each molecule tested received a call. Report the one for `Cc1cccc(/C=C/c2c(C(=O)/C=C/c3ccccc3)c(C)nc3ccccc23)c1` .
// result n

// query Hi team, can someone confirm the assay call for `Cc1nnn[n-]1.N.N.N.N.N.[Cl-].[Co+3]` ?
// result n

// query Look up the recorded call for `COC12C=C/C(=C(/C(=O)OCc3cncnc3)C(=O)CCCCCCCCC3(OC)C=C/C(=C(/C(=O)OCc4cncnc4)C(=O)CCCCCCCC1)O3)O2` in this test.
// result n

----------
System: MCF7 breast
Assay Remarks: NCI tumour cell line growth inhibition, 48 h
Quick list: TGI per entry.

// query Check the records and state TGI for `COc1cc(/C=C\c2cc(OC)c(OC)c(OC)c2)cc(NC(=O)/C=C/c2cc(OC)c(OC)c(OC)c2)c1OC`
// result > 100 µM

----------
Tested on: NCI-H226 lung
Assay Remarks: NCI tumour cell line growth inhibition, 48 h
Label Fulfilled when TGI is at or above 20 µM; otherwise label Not fulfilled.

[[record]]
structure = "c1coc(CNc2ncnc3[nH]ncc23)c1"
label_class = "Fulfilled"

[[record]]
structure = "COC12C=C/C(=C(/C(=O)OCc3cncnc3)C(=O)CCCCCCCCC3(OC)C=C/C(=C(/C(=O)OCc4cncnc4)C(=O)CCCCCCCC1)O3)O2"
label_class = "Not fulfilled"

[[record]]
structure = "CCOC(=O)Nc1ccc2c(c1)/C(=N\\NC(N)=S)c1ccccc1-2"
label_class = "Not fulfilled"

[[record]]
structure = "C=CCN=c1sc2c(n1NC(=O)c1cc3ccc1CCc1ccc(cc1)CC3)C(=O)c1ccccc1C2=O"
label_class = "Not fulfilled"

[[record]]
structure = "c1ccc(-c2nnc(-c3ccccn3)c3c2C[C@@H]2C[C@@H]4Cc5c(-c6ccccn6)nnc(-c6ccccn6)c5[C@@H]4[C@H]32)nc1"
label_class = "Fulfilled"


// query Could you please find out whether `COC1=C(N)C(=O)c2nc(C)ccc2C1=O` has TGI that meets 20 µM or exceeds it?
// result Not fulfilled

// query Test whether the compound `COc1ccc(OC)c(-c2nc3n(c2/C=C2/C(=O)Nc4ccccc42)CCS3)c1` records TGI of 20 µM or higher.
// result Fulfilled

// query Test whether the compound `O=C(O)CN(CC(=O)O)Cc1cc(C#Cc2ccc(C#Cc3ccccc3)cc2)cc(CN(CC(=O)O)CC(=O)O)n1` records TGI of 20 µM or higher.
// result Fulfilled

// query Could you please find out whether `Cc1ccc(S(=O)(=O)N2CCC(=O)c3cc(Br)ccc32)cc1` has TGI that meets 20 µM or exceeds it?
// result Fulfilled

----------
The compounds listed here are annotated with their GI50.
System: COLO 205 colon
Assay Remarks: NCI tumour cell line growth inhibition, 48 h

Check out these entries, answers already filled in.
[[record]]
compound = "C[C@H](NC(=O)[C@@H](C)N)[C@H](Oc1ccc2c(cnn2-c2ccc(F)cc2)c1)c1ccc2c(c1)OCCO2"
observed = "1.83 µM"

[[record]]
compound = "CCN1C(=O)N(CC)C2C1NN=c1s/c(=C\\c3cccc(F)c3)c(=O)n12 (configuration not stated)"
observed = "0.243 µM"

[[record]]
compound = "CCOC(=O)N1CCN(/[N+]([O-])=N/Oc2ccc([N+](=O)[O-])cc2[N+](=O)[O-])CC1"
observed = "0.349 µM"


// query For the compound `CCOC(=O)Nc1ccc2c(c1)/C(=N\NC(N)=S)c1ccccc1-2` , give its reported GI50.
// result 3.74 µM

// query Output GI50 of CN(O)C(=O)SCC(NC(=O)CCC(N)C(=O)O)C(=O)NCC(=O)O (configuration not stated)
// result > 2000 µM

// query Provide GI50 value for the following compound: C[C@@]1(C(=O)O)CCC[C@]2(C)C1CC[C@@]13CC(=O)[C@@](CO)(CC[C@]12O)C3 (some centres not stated)
// result 6.16 µM

----------
Tested on: OVCAR-4 ovarian
Assay Remarks: NCI tumour cell line growth inhibition, 48 h
In this section we review reported GI50 values for a set of compounds.

Worked examples, 5 compounds total:
[[record]]
compound = "CCN(Cc1ccc(Cl)cc1)c1ccc(CO)c(Cl)c1"
system = "OVCAR-4 ovarian"
property_measured = "GI50"
observed = "0.543 µM"

[[record]]
compound = "O=C(CCCCCCNC(=O)c1cnc(N(c2ccccc2)c2ccccc2)nc1)NO"
system = "OVCAR-4 ovarian"
property_measured = "GI50"
observed = "5.56 µM"

[[record]]
compound = "COc1cc(/C=C\\c2cc(OC)c(OC)c(OC)c2)cc(NC(=O)/C=C/c2cc(OC)c(OC)c(OC)c2)c1OC"
system = "OVCAR-4 ovarian"
property_measured = "GI50"
observed = "3.86 µM"

[[record]]
compound = "C[C@@]1(C(=O)O)CCC[C@]2(C)C1CC[C@@]13CC(=O)[C@@](CO)(CC[C@]12O)C3 (some centres undefined)"
system = "OVCAR-4 ovarian"
property_measured = "GI50"
observed = "> 100 µM"

[[record]]
compound = "COc1ccc2[nH]cc(-c3ccc(-c4c[nH]c5ccc(OC)cc45)s3)c2c1"
system = "OVCAR-4 ovarian"
property_measured = "GI50"
observed = "6.82 µM"


// query Tell me GI50 reported for `CCOC(=O)Nc1ccc2c(c1)/C(=N\NC(N)=S)c1ccccc1-2`
// result 4.39 µM

// query For the compound `O=C1C(Cl)=C(Nc2cccc(Cl)c2)C(=O)N1Cc1ccc(Cl)cc1` , report GI50.
// result 4.68 µM

----------
Tested on: SF-539 CNS
Assay Remarks: NCI tumour cell line growth inhibition, 48 h
Property Measured: TGI

Answered examples (3):
[[record]]
compound = "Fc1ccc(Oc2nc3ccc(C(F)(F)F)cc3nc2-c2ccccc2)cc1"
observed = "> 100 µM"

[[record]]
compound = "C/C(=N\\NC(=S)N1CC2CCC(CC2)C1)c1nccs1"
observed = "3.57 µM"

[[record]]
compound = "CCOC(=O)C12CCCC1(O)N(NC(=O)OC(C)(C)C)C(C)=C2C(=O)OC (stereo unspecified)"
observed = "> 100 µM"


// query Provide TGI, tested on SF-539 CNS, for `NS(=O)(=O)c1ccc(-n2nc(-c3ccc(Cl)cc3)cc2-c2cc(O)ccc2O)cc1` .
// result 46.7 µM

// query Supply TGI measured with SF-539 CNS for `O=c1cc(-c2ccccc2)[nH]c2ccc(N3CCOCC3)cc12` .
// result 0.615 µM

// query Report TGI from SF-539 CNS testing of `CCOC(=O)Nc1ccc2c(c1)/C(=N\NC(N)=S)c1ccccc1-2`
// result 17.3 µM

// query Name the value of TGI reported for OC(Cc1ccncc1)C(Cl)(Cl)Cl (stereo unspecified) when tested on SF-539 CNS.
// result > 100 µM

// query Provide SF-539 CNS TGI reading for `CCc1cccc(C(C)(C)C)c1NC(=S)N/C=C(/C#N)C(N)=O` .
// result > 100 µM

// query State TGI on SF-539 CNS. Entry: C[C@@]1(C(=O)O)CCC[C@]2(C)C1CC[C@@]13CC(=O)[C@@](CO)(CC[C@]12O)C3 (stereo partly specified)
// result > 100 µM

// query Name the recorded TGI of COc1ccc(/C=C2\CCC(CNc3ccc(S(N)(=O)=O)cc3)C2=O)cc1 (stereo unspecified) , assay system SF-539 CNS.
// result > 59.2 µM

// query Report the value of TGI obtained on SF-539 CNS for `O=C(O)CCCSC(=O)Nc1ccc(N=Nc2ccccc2)cc1` .
// result > 100 µM

// query Quote SF-539 CNS TGI for entry `COc1ccc([C@H]2CC(=O)C[C@H](c3ccc(OC)cc3)C23C(=O)c2ccccc2C3=O)cc1` .
// result 53.3 µM

// query Answer with TGI of CC(CC[C@@H](O)C(C)(C)O)C1[C@@H](O)CC2(C)C3CC(O)C4C(C)(C)[C@@H](OC5OC(CO)C(O)C(O)C5O)CC[C@@]45C[C@@]35CC[C@]12C (stereo partly specified) measured for SF-539 CNS.
// result > 10 µM

// query Under SF-539 CNS: report TGI of `Cc1ccc(C2=Nn3c(nc4sc(C)c(C)c4c3=O)SC2)cc1` .
// result > 100 µM

// query Report TGI from SF-539 CNS testing of COC(=O)CC1C[C@H](C#N)N(C(=O)c2ccccc2)C[C@@H]1CC[N+](=O)[O-] (stereo partly specified)
// result > 100 µM

// query Provide SF-539 CNS TGI reading for `Cc1ccc2c(c1)C(=O)N(N(C)C)CC(=O)N2` .
// result > 100 µM

// query GET TGI where system = SF-539 CNS and item = `Cc1cc2c(cc1C)OC(=O)CC2`
// result > 100 µM

// query Look up and report measured TGI (SF-539 CNS) for the following compound: `C/C(=C(/C)c1ccc(O)cc1)c1ccc(O)cc1`
// result > 100 µM

// query Param request: TGI | system SF-539 CNS | item `O=C(Oc1cccc(F)c1OC(=O)c1cccc(O)c1)c1cccc(O)c1`
// result > 100 µM

// query Tell me TGI of `O=c1[nH]c(=O)c2cn[nH]c2[nH]1` when tested on SF-539 CNS.
// result > 100 µM

// query Provide TGI, recorded with SF-539 CNS, of `Cc1cccc(/C=C/c2c(C(=O)/C=C/c3ccccc3)c(C)nc3ccccc23)c1`
// result 3.12 µM

// query Give the observed TGI of COc1cc(C(O)CCBr)c(OC)cc1C (stereo unspecified) for SF-539 CNS.
// result 31.3 µM

// query Recall the reported TGI of `O=C1NC2=C(CCCC/C2=N\O)C12CCCCC2` on SF-539 CNS and write it down.
// result > 100 µM

// query Report TGI on SF-539 CNS for this entry: `O=C(NNC(=S)Nc1ccccc1)c1cc(-c2ccccc2)nc2ccccc12`
// result 38.7 µM

// query Report value: TGI, system: SF-539 CNS, compound: CC(=O)OCCCC(NC(=O)OC(C)(C)C)C(=O)NC(CCCOC(C)=O)C(=O)NC(Cc1ccc([N+](=O)[O-])cc1)C(=O)NCC(=O)OCc1ccccc1 (stereo unspecified)
// result 28.9 µM
